Just for reference, patent US20250339566A1 is where these values come from.

# Target of assay: human DPP9 (Homo sapiens, UniProt Q86TI2)
# Construct: made in house; host or cells: Sf9 insect cells (baculovirus)
# Sequence (Q86TI2 whole entry): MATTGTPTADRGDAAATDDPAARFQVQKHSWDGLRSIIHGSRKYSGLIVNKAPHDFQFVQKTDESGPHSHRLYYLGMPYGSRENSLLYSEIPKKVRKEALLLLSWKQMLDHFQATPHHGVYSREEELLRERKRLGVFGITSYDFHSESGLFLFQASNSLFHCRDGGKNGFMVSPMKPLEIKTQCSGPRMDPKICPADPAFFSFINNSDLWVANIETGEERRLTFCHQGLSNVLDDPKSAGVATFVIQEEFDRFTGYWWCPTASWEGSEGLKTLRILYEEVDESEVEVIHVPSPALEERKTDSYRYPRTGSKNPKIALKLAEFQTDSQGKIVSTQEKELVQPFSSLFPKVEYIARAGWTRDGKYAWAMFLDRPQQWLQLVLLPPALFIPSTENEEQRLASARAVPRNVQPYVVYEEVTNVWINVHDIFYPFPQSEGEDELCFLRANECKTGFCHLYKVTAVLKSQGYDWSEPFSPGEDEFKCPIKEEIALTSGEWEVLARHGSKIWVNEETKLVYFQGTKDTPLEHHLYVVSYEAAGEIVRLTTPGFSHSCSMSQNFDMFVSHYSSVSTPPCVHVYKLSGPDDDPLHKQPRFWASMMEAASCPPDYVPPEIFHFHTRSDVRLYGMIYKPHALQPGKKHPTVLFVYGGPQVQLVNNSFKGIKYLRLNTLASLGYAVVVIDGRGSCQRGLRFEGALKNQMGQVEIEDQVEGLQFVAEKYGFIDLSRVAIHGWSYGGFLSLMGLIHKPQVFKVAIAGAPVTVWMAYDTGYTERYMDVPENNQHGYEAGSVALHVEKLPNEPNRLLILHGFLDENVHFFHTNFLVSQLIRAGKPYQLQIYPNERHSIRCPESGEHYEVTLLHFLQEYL
# Method summary: DPP9 IC50 measurement (Ala-Pro-pNA)
# Assay type: biochemical
# Test conditions: Ala-Pro-pNA 150 μM, pH 7.4
Here the recorded IC50 is given for each entry.

[
  {
    "Molecule": "C[N+](C)(CF)CCCOc1ccc2nccc(C(=O)NCC(=O)N3CC(F)(F)C[C@H]3C#N)c2c1.Cc1ccc(S(=O)(=O)[O-])cc1 [Compound 4a, benzenesulfonate]",
    "IC50": "> 10 µM"
  },
  {
    "Molecule": "C[N+]1(CCCOc2ccc3nccc(C(=O)NCC(=O)N4CC(F)(F)C[C@H]4C#N)c3c2)CCN(C(=O)c2ccc(B(O)O)cc2)CC1.Cc1ccc(S(=O)(=O)[O-])cc1 [Compound 12, 4-methylbenzenesulfonate]",
    "IC50": "> 1 µM"
  },
  {
    "Molecule": "C[N+](C)(C)CCOCCOCCOc1ccc2nccc(C(=O)NCC(=O)N3CC(F)(F)C[C@H]3C#N)c2c1.Cc1ccc(S(=O)(=O)[O-])cc1 [Compound 7, 4-methylbenzenesulfonate]",
    "IC50": "> 10 µM"
  },
  {
    "Molecule": "C[N+](C)(CF)CCOc1ccc2nccc(C(=O)NCC(=O)N3CC(F)(F)C[C@H]3C#N)c2c1.Cc1ccc(S(=O)(=O)[O-])cc1 [Compound 4b, 4-methylbenzenesulfonate]",
    "IC50": "> 10 µM"
  }
]

Query: IC50; subject: C[N+](C)(CCF)CCOCCOc1ccc2nccc(C(=O)NCC(=O)N3CC(F)(F)C[C@H]3C#N)c2c1 [Compound 8, 4-methylbenzenesulfonate]
> 10 µM

====

# Target of assay: Human recombinant PREP (Homo sapiens, UniProt P48147)
# Method summary: PREP IC50 measurement (N-succinyl-Gly-Pro-AMC)
# Test conditions: N-succinyl-Gly-Pro-AMC 250 μM, pH 7.4
Measure name: IC50

Consider the worked cases shown below.
[
  {
    "Compound": "C[N+](C)(CF)CCOc1ccc2nccc(C(=O)NCC(=O)N3CC(F)(F)C[C@H]3C#N)c2c1.Cc1ccc(S(=O)(=O)[O-])cc1 [Compound 4b, 4-methylbenzenesulfonate]",
    "Target of assay": "Human recombinant PREP (Homo sapiens, UniProt P48147)",
    "Result": "> 10 µM"
  },
  {
    "Compound": "C[N+](C)(CF)CCOCCOc1ccc2nccc(C(=O)NCC(=O)N3CC(F)(F)C[C@H]3C#N)c2c1.Cc1ccc(S(=O)(=O)[O-])cc1 [Compound 9, 4-methylbenzenesulfonate]",
    "Target of assay": "Human recombinant PREP (Homo sapiens, UniProt P48147)",
    "Result": "5.33 µM"
  },
  {
    "Compound": "C[N+](C)(CF)CCOCCOCCOc1ccc2nccc(C(=O)NCC(=O)N3CC(F)(F)C[C@H]3C#N)c2c1",
    "Target of assay": "Human recombinant PREP (Homo sapiens, UniProt P48147)",
    "Result": "> 1 µM"
  }
]

Could you tell me which IC50 is on file for C[N+]1(CCCOc2ccc3nccc(C(=O)NCC(=O)N4CC(F)(F)C[C@H]4C#N)c3c2)CCN(C(=O)c2ccc(F)cc2)CC1 ?
> 10 µM

====

# Target of assay: human FAP (Homo sapiens, UniProt Q12884)
# Construct: the human secretion signal was replaced with the HoneyBee mellitin secretion signal; honeybee melittin secretion signal (replaces the native signal) (N)
# Sequence (Q12884 26-760 limits assumed): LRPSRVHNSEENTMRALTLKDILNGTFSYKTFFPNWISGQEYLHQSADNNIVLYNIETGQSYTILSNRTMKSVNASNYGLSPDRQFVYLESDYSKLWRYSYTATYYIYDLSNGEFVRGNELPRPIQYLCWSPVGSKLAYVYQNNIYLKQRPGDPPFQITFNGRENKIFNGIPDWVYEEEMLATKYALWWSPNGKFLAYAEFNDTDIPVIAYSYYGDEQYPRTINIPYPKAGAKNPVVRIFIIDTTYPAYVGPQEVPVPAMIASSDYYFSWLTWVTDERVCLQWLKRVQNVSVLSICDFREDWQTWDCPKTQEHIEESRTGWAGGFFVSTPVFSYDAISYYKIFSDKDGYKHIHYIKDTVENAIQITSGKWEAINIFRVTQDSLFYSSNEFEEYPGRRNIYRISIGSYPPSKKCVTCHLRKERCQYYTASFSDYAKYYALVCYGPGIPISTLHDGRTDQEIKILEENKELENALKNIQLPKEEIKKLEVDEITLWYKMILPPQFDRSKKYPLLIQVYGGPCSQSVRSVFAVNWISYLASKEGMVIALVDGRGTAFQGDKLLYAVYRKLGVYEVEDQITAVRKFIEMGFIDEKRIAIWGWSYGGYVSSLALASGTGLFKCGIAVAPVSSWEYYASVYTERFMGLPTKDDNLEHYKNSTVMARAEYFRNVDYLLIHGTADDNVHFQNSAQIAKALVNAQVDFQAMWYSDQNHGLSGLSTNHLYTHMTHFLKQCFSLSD
# Method summary: FAP IC50 measurement (Z-Gly-Pro-AMC)
# Test conditions: Z-Gly-Pro-AMC 50 μM, pH 8, 15 min pre-incubation
Measure name: pIC50
Recall that pIC50 is obtained by taking minus log10 of the concentration measured in molar.

Suppose we examine the compound C[N+](C)(CF)CCCOc1ccc2nccc(C(=O)NCC(=O)N3CC(F)(F)C[C@H]3C#N)c2c1.Cc1ccc(S(=O)(=O)[O-])cc1 [Compound 4a, benzenesulfonate] ; what pIC50 value has been reported?
9.49

====

Overview of recorded IC50 for various compounds
# Target of assay: DPP4 (Homo sapiens, UniProt P27487)
# Construct: DPP4 was purified from human seminal plasma
# Sequence (P27487 whole entry): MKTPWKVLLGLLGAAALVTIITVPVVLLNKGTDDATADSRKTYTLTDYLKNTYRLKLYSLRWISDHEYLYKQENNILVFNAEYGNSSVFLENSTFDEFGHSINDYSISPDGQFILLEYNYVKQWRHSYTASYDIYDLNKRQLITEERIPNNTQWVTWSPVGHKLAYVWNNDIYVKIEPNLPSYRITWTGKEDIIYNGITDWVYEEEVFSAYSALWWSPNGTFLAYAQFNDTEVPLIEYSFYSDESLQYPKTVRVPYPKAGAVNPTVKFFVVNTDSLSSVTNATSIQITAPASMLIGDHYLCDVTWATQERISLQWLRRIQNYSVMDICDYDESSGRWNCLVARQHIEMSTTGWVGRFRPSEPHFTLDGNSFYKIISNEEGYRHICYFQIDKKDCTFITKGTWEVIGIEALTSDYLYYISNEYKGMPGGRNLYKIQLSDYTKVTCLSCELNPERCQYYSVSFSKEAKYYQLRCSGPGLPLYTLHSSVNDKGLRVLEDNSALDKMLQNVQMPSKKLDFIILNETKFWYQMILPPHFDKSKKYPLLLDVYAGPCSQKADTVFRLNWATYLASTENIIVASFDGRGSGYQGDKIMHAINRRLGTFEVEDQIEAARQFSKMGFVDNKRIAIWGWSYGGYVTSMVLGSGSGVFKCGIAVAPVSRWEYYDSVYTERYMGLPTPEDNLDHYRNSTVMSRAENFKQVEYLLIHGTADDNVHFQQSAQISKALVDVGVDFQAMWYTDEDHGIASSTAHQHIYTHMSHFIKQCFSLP
# Method summary: DPP4 IC50 measurement (Ala-Pro-pNA)
# Test conditions: Ala-Pro-pNA 25 μM, pH 7.4

A selection of reference data follows.
[
  {
    "Compound": "C[N+](C)(CF)CCOc1ccc2nccc(C(=O)NCC(=O)N3CC(F)(F)C[C@H]3C#N)c2c1.Cc1ccc(S(=O)(=O)[O-])cc1 [Compound 4b, 4-methylbenzenesulfonate]",
    "IC50": "> 10 µM"
  },
  {
    "Compound": "C[N+](C)(C)CCOCCOCCOc1ccc2nccc(C(=O)NCC(=O)N3CC(F)(F)C[C@H]3C#N)c2c1.Cc1ccc(S(=O)(=O)[O-])cc1 [Compound 7, 4-methylbenzenesulfonate]",
    "IC50": "> 10 µM"
  },
  {
    "Compound": "C[N+]1(CCCOc2ccc3nccc(C(=O)NCC(=O)N4CC(F)(F)C[C@H]4C#N)c3c2)CCN(C(=O)c2ccc(I)cc2)CC1 [Compound 13]",
    "IC50": "> 10 µM"
  },
  {
    "Compound": "C[N+](C)(CCF)CCOCCOc1ccc2nccc(C(=O)NCC(=O)N3CC(F)(F)C[C@H]3C#N)c2c1 [Compound 8, 4-methylbenzenesulfonate]",
    "IC50": "> 10 µM"
  },
  {
    "Compound": "C[N+](C)(CF)CCOCCOCCOc1ccc2nccc(C(=O)NCC(=O)N3CC(F)(F)C[C@H]3C#N)c2c1 [Compound 10]",
    "IC50": "> 1 µM"
  }
]

Query (compound): C[N+]1(CCCOc2ccc3nccc(C(=O)NCC(=O)N4CC(F)(F)C[C@H]4C#N)c3c2)CCN(C(=O)c2ccc(F)cc2)CC1 [Compound 14] ; field requested: IC50
> 10 µM

====

# Target of assay: DPP4 (Homo sapiens)
# Construct: DPP4 was purified from human seminal plasma
# Method summary: DPP4 IC50 measurement (Ala-Pro-pNA)
# Test conditions: Ala-Pro-pNA 25 μM, pH 7.4
Measure name: IC50

[
  {
    "Molecule": "C[N+](C)(CF)CCCOc1ccc2nccc(C(=O)NCC(=O)N3CC(F)(F)C[C@H]3C#N)c2c1.Cc1ccc(S(=O)(=O)[O-])cc1 [Compound 4a, benzenesulfonate]",
    "Result": "> 10 µM"
  },
  {
    "Molecule": "C[N+]1(CCCOc2ccc3nccc(C(=O)NCC(=O)N4CC(F)(F)C[C@H]4C#N)c3c2)CCN(C(=O)c2ccc(B(O)O)cc2)CC1.Cc1ccc(S(=O)(=O)[O-])cc1 [Compound 12, 4-methylbenzenesulfonate]",
    "Result": "> 1 µM"
  }
]

// IC50 lookup, key: CC(C)(C)OC(=O)N1CC[N+](C)(CCCOc2ccc3nccc(C(=O)NCC(=O)N4CC(F)(F)C[C@H]4C#N)c3c2)CC1
> 10 µM

====

# Target of assay: Human recombinant PREP (Homo sapiens, UniProt P48147)
# Construct: made in house; host or cells: E. coli BL21(DE3)
# Sequence (P48147 1-710): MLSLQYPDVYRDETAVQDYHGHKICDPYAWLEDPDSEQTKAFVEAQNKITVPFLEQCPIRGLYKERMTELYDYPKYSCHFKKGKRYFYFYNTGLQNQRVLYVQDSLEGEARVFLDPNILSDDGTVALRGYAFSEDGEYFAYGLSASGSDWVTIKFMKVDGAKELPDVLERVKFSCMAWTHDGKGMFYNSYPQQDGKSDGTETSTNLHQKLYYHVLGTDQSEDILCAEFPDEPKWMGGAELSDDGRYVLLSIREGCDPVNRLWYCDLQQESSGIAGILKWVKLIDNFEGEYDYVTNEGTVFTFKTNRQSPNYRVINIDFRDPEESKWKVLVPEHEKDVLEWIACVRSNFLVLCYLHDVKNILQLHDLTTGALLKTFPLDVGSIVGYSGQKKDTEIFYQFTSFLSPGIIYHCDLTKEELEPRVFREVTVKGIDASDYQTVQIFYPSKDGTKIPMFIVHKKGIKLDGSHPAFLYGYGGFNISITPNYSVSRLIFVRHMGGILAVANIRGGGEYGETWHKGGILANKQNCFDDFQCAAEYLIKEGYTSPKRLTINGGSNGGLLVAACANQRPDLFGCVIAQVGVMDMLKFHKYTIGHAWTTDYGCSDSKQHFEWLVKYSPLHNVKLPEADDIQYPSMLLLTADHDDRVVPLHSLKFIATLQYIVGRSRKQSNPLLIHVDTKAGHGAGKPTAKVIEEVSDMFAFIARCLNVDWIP
# Method summary: PREP IC50 measurement (N-succinyl-Gly-Pro-AMC)
# Format: biochemical
# Test conditions: IC50(PREP)/IC50(FAP)
Measure name: Selectivity index PREP

Worked cases, answers included:
[
  {
    "Structure smiles string": "C[N+]1(CCCOc2ccc3nccc(C(=O)NCC(=O)N4CC(F)(F)C[C@H]4C#N)c3c2)CCN(C(=O)c2ccc(B(O)O)cc2)CC1.Cc1ccc(S(=O)(=O)[O-])cc1",
    "Selectivity index PREP": ">17000"
  },
  {
    "Structure smiles string": "C[N+](C)(CF)CCCOc1ccc2nccc(C(=O)NCC(=O)N3CC(F)(F)C[C@H]3C#N)c2c1.Cc1ccc(S(=O)(=O)[O-])cc1",
    "Selectivity index PREP": ">31000"
  }
]

For the next question, use this compound.
Request - read-out Selectivity index PREP | tested on Human recombinant PREP (Homo sapiens, UniProt P48147) | compound C[N+](C)(CF)CCOCCOCCOc1ccc2nccc(C(=O)NCC(=O)N3CC(F)(F)C[C@H]3C#N)c2c1
>2100
